targetOfAssay: JAK2 JH2 (Homo sapiens)
Construct: Enzyme: JAK2 JH2, His-Avi-Tag, Biotin-Labeled (BPS Bioscience, Cat #79074) 1 nM; His
Sequence (O60674 545-809 limits assumed): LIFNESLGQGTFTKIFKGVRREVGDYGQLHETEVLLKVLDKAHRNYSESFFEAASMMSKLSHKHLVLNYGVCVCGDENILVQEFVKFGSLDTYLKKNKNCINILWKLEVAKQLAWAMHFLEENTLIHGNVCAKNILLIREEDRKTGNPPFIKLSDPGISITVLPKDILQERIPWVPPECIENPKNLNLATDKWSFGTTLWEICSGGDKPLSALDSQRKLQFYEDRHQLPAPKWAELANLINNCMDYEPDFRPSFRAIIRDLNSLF
assayText: JAK2 JH2 TR-FRET Assay
measurementContext: JAK2 JH2 1 nM, Tracer ZE84-0003 10 nM
Procedure: Assay Buffer 1×: • 20 mM HEPES pH 7.2-7.4; • 10 mM MgCl2; • 0.015% Brij-35; • 2 mM DTT; • 0.05 mg/ml BSA. Final assay concentrations: • DMSO: 0.25%; • Streptavidin Tb-cryptate (Cisbio, Cat #610SATLB) 0.2 nM; • Enzyme: JAK2 JH2, His-Avi-Tag, Biotin-Labeled (BPS Bioscience, Cat #79074) 1 nM; • Probe: Tracer ZE84-0003 (ChemRar) 10 nM. […] Assay protocol: • 1. […] Measure Fluorescence using Microplate Reader (Ex: TR, Em1/Em2: 482/520). […]
pEC50: −log10 of the molar value.
This section presents compounds with their documented pEC50 values.

Example entries begin here.
smilesNotation: COc1c(Nc2nc(Nc3cnn(C)c3)ncc2C(N)=O)cccc1-c1ccccn1
result: 7.00 to 7.30
//
smilesNotation: COc1c(Nc2nc(Nc3cnn(CC45CC6CC(CC(C6)C4)C5)c3)ncc2C(N)=O)cccc1-c1ncn(C)n1
result: < 7.00
//
smilesNotation: COc1c(Nc2nc(Nc3cnn(C)c3)ncc2C(N)=O)cccc1-c1nc2ccccc2o1
result: 7.30 to 8.00
//
smilesNotation: COc1c(Nc2nc(Nc3cnn(CCCN(C)C)c3)ncc2C(N)=O)cccc1-c1ncn(C)n1
result: < 7.00
//
smilesNotation: COc1c(Nc2nc(Nc3cnn(C4CCOCC4)c3)ncc2C(N)=O)cccc1-c1ncn(C)n1
result: ≥ 8.00
//
smilesNotation: COc1c(Nc2nc(Nc3cnn(C4CCOCC4)c3)ncc2C(N)=O)cccc1-c1ccccn1
result: 7.30 to 8.00
//
smilesNotation: COc1c(Nc2nc(Nc3cnn(C45CC6CC(CC(C6)C4)C5)c3)ncc2C(N)=O)cccc1-c1nc2ccccc2o1
result: < 7.00

// switching to the query compound
Task: Dear colleague, I am looking for the recorded pEC50 of the following compound: COc1c(Nc2nc(Nc3c(C)nn(C(C)C)c3C)ncc2C(N)=O)cccc1-c1ncn(C)n1
Result: < 7.00

----------
// CC50 at 72 h lookup, one value per entry
assayText: Proliferation inhibition assay (CellTiter-Glo), Ba/F3 JAK2 wt
Format: cell-based
measurementContext: mouse, Ba/F3 (JAK2 wt) cells, with 10 ng/ml rmIL-3, 72 h; read-out: Ba/F3 JAK2 wt + IL3, CC50 3 days

molecule: COc1c(Nc2nc(Nc3cnn(CC(C)C)c3)ncc2C(N)=O)cccc1-c1ncn(C)n1 [Compound 58]
CC50 at 72 h: 1 to 5 µM
//
molecule: COCCCn1cc(Nc2ncc(C(N)=O)c(Nc3cccc(-c4ncn(CCCOC)n4)c3OC)n2)cn1 [Compound 53]
CC50 at 72 h: > 10 µM
//
molecule: COc1c(Nc2nc(Nc3cnn(C)c3)ncc2C(N)=O)cccc1-c1ccncc1 [Compound 37]
CC50 at 72 h: 5 to 10 µM
//
molecule: COc1c(Nc2nc(Nc3cnn(C)c3)ncc2C(N)=O)cccc1-c1ccccn1 [Compound 2]
CC50 at 72 h: > 10 µM
//
molecule: COc1c(Nc2nc(Nc3cnn(CC(F)(F)F)c3)ncc2C(N)=O)cccc1-c1nc2ccccc2o1 [Compound 57]
CC50 at 72 h: > 10 µM

Task: Look at this molecule and give its reported CC50 at 72 h. COc1c(Nc2nc(Nc3cnn(CCN(CC(C)C)CC(C)C)c3)ncc2C(N)=O)cccc1-c1ncn(C)n1 [Compound 29]
Result: 5 to 10 µM

Task: Can you share its CC50 at 72 h? I mean this molecule: COc1c(Nc2nc(Nc3cnn(CCN(CC(C)C)CC(C)C)c3)ncc2C(N)=O)cccc1-c1ccccn1 [Compound 42]
Result: 5 to 10 µM

Task: Returns the measured CC50 at 72 h for the input molecule. Input: COc1c(Nc2nc(Nc3cnn(C4CCOCC4)c3)ncc2C(N)=O)cccc1-c1ncn(C)n1 [Compound 14]
Result: > 10 µM

Task: Would you kindly share the measured CC50 at 72 h for COc1c(Nc2nc(Nc3cnn(C4CCOCC4)c3)ncc2C(N)=O)cccc1-c1nc2ccccc2o1 [Compound 44] ?
Result: 1 to 5 µM

Task: Would you kindly share the measured CC50 at 72 h for COc1c(Nc2nc(Nc3cnn(C)c3)ncc2C(N)=O)cccc1-c1cccnc1 [Compound 36] ?
Result: > 10 µM

Task: Please look up its CC50 at 72 h: COc1c(Nc2nc(Nc3cnn(C45CC6CC(CC(C6)C4)C5)c3)ncc2C(N)=O)cccc1-c1ncn(C)n1 [Compound 30]
Result: 1 to 5 µM

Task: Item under review: COc1c(Nc2nc(Nc3cnn(C(C)C)c3)ncc2C(N)=O)cccc1-c1ncn(C)n1 [Compound 4] . Reported CC50 at 72 h?
Result: 5 to 10 µM

Task: Query (molecule): COc1c(Nc2nc(Nc3cnn(CCCN(C)C)c3)ncc2C(N)=O)cccc1-c1ncn(C)n1 [Compound 28] ; field requested: CC50 at 72 h
Result: > 10 µM

Task: Dear colleague, I am looking for the recorded CC50 at 72 h of the following molecule: COc1c(Nc2nc(Nc3cnn(C45CC6CC(CC(C6)C4)C5)c3)ncc2C(N)=O)cccc1-c1ccccn1 [Compound 41]
Result: 5 to 10 µM

Task: What CC50 at 72 h value was documented for this molecule, CCOCCn1cc(Nc2ncc(C(N)=O)c(Nc3cccc(-c4ncn(C)n4)c3OC)n2)cn1 [Compound 55] ?
Result: > 10 µM

Task: Need CC50 at 72 h of COc1c(Nc2nc(Nc3cnn(C)c3)ncc2C(N)=O)cccc1-c1nnc(C)o1 [Compound 3] , thanks.
Result: > 10 µM

----------
assayText: Proliferation inhibition assay (CellTiter-Glo), Ba/F3 JAK2 wt
Assay type: cell-based
measurementContext: mouse, Ba/F3 (JAK2 wt) cells, with 10 ng/ml rmIL-3, 72 h; read-out: Ba/F3 JAK2 wt + IL3, CC50 3 days
Description: Ba/F3 (JAK2 wt) (ABM, T3076) cells and Ba/F3 (JAK2 V617F) (WuXi AppTec) cells were grown in RPMI-1640 (Gibco, cat. number 21870) supplemented with 10% FBS (Hyclone Laboratories Inc, Cat #SV30160.03), 1× Antibiotic-antimycotic (Gibco, Cat #15240-062), 2× Sodium pyruvate (Paneco, cat #F023), 2× Essential amino acids (Paneco, cat #F115/100), 1× Non-Essential amino acids (Paneco, cat #F116) at 37° C. in 5% CO2 atmosphere. […]
Measured CC50 at 72 h by item

Before answering, review these 8 worked examples.
compound: COc1c(Nc2nc(Nc3cnn(C(C)C)c3)ncc2C(N)=O)cccc1-c1ccccn1
CC50 at 72 h: 5 to 10 µM

compound: COCCn1cc(Nc2ncc(C(N)=O)c(Nc3cccc(-c4ncn(C)n4)c3OC)n2)cn1
CC50 at 72 h: > 10 µM

compound: COc1c(Nc2nc(Nc3cnn(CC(C)C)c3)ncc2C(N)=O)cccc1-c1nc2ccccc2o1
CC50 at 72 h: 5 to 10 µM

compound: COc1c(Nc2nc(Nc3cnn(C45CC6CC(CC(C6)C4)C5)c3)ncc2C(N)=O)cccc1-c1nc2ccccc2o1
CC50 at 72 h: 5 to 10 µM

compound: COc1c(Nc2nc(Nc3cnn(C(C)C)c3)ncc2C(N)=O)cccc1-c1nc2ccccc2o1
CC50 at 72 h: 5 to 10 µM

compound: COc1c(Nc2nc(Nc3cnn(CCCN(C)C)c3)ncc2C(N)=O)cccc1-c1nc2ccccc2o1
CC50 at 72 h: 1 to 5 µM

compound: CCn1nc(C)c(Nc2ncc(C(N)=O)c(Nc3cccc(-c4ncn(C)n4)c3OC)n2)c1C
CC50 at 72 h: > 10 µM

compound: COc1c(Nc2nc(Nc3cnn(C4CCCCC4)c3)ncc2C(N)=O)cccc1-c1ccccn1
CC50 at 72 h: 5 to 10 µM

Task: Requested read-out: CC50 at 72 h. Entry: COc1c(Nc2nc(Nc3cnn(CC(F)(F)F)c3)ncc2C(N)=O)cccc1-c1ncn(C)n1
Result: 5 to 10 µM

Task: Fill blank: measured CC50 at 72 h of the compound COc1c(Nc2nc(Nc3cnn(CC4CCCCC4)c3)ncc2C(N)=O)cccc1-c1ncn(C)n1 is ____.
Result: 5 to 10 µM

Task: Quick one: CC50 at 72 h of COc1c(Nc2nc(Nc3cnn(C4CCOCC4)c3)ncc2C(N)=O)cccc1-c1ccccn1 ?
Result: 5 to 10 µM

Task: Which CC50 at 72 h value belongs to COc1c(Nc2nc(Nc3cnn(C4CCN(C(C)C)CC4)c3)ncc2C(N)=O)cccc1-c1ncn(C)n1 ?
Result: > 10 µM

Task: Which measured CC50 at 72 h value corresponds to COc1c(Nc2nc(Nc3cnn(C4CCNCC4)c3)ncc2C(N)=O)cccc1-c1ncn(C)n1 [Compound 7, 2,2,2-trifluoroacetate] ?
Result: > 10 µM

Task: Reported CC50 at 72 h for COc1c(Nc2nc(Nc3cnn(-c4ccccc4)c3)ncc2C(N)=O)cccc1-c1ncn(C)n1 : what is it?
Result: > 10 µM

Task: Look up CC50 at 72 h: COc1c(Nc2nc(Nc3c(C)nn(C)c3C)ncc2C(N)=O)cccc1-c1ncn(C)n1
Result: > 10 µM
